Target: Cytochrome P450 3A4 (Homo sapiens) (UniProt P08684)
Sequence (P08684 whole entry, looked up): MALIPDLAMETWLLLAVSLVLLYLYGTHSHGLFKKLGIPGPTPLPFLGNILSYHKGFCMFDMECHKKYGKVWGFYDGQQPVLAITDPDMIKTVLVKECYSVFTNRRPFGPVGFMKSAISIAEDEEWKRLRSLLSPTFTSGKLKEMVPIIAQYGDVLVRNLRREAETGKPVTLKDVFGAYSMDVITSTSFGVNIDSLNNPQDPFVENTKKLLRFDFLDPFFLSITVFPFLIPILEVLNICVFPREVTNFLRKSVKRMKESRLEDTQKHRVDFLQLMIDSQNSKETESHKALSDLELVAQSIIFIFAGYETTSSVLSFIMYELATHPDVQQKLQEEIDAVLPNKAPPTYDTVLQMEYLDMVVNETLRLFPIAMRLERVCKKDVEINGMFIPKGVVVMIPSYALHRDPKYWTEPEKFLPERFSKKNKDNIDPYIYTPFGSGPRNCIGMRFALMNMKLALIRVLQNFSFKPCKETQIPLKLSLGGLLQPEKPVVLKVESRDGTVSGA
Experiment: Cytochrome panel assay with activity outcomes
Conditions: recombinant CYP, pro-luciferin dealkylation, luminescence, p450-cyp3a4; series mostly up to 57.1 µM
Out of some 16,000 compounds screened, about 5,100 (32%) were called active. About 25% were inconclusive and are not listed. The call rests on the fitted dose curve; in most records, active means well fitted curve in the direction sought with a large enough effect; inconclusive means small, poorly fitted or top-dose-only effect, or effect the other way; inactive means no such curve, though single readings can be large or run the other way. The list shows a part of the results.
Reply using exactly one outcome from active, inactive

Examples with answers:
| COMPOUND | QUALITATIVE LABEL |
| --- | --- |
| CO[C@]1(NC(=O)[C@H](C(=O)O)c2ccc(O)cc2)C(=O)N2C(C(=O)O)=C(CSc3nnnn3C)CO[C@H]21 | inactive |
| Cc1ccc2nc(NC(=O)CSCC(=O)OCC(=O)c3ccc(Br)cc3)sc2c1 | active |
| C=CCn1c(=O)c(C(=O)NCCN(CC)CC)c(O)c2ccccc21 | inactive |
| NC(N)=NN=Cc1c(Cl)cccc1Cl | inactive |
| O=S(=O)(NC1CCN(Cc2ccccc2)CC1)c1cccc2cccnc12 | active |
| O=c1[nH]c(=O)c2nc3ccccc3nc2[nH]1 | inactive |
| Cc1n[nH]c(=S)n1/N=C/c1ccccc1OCc1ccc(Cl)cc1 | active |
| Fc1ccc2nc3[nH]c4ccccc4c3nc2c1 | active |

Outcome? CC(C)CNC(=O)c1nc(-c2ccccc2)n(-c2ccccc2)n1
inactive

Just curious, what result did CC(C)CN(CC(C)C)S(=O)(=O)N1CCC(C(=O)NCc2ccc(F)cc2)CC1 get here?
active

Recorded test outcome, item COc1cccc(Cn2c(=O)c(-c3cn(C)c4ccccc34)nc3cnc(OC)nc32)c1
active

Short answer needed: outcome of this test for COc1ccc(C(=O)NCc2ccc(-c3nc4ccccc4s3)cc2)cc1 ?
active

What outcome does the record of this test show for O=C(c1cnccn1)N1CCC2(CCCN(c3ncccn3)C2)CC1 ?
inactive

Recorded test outcome, item Cc1ccc2nc(NC(=O)COC(=O)c3ccc(Br)o3)sc2c1
active

Would you mind telling me which call this test gave CCCCN(CC)S(=O)(=O)N1CCC(C(=O)NCCCN2CCOCC2)CC1 ?
active

Please let me know the test result on file for Cc1ccc(S(=O)(=O)N(CCCN2CCCC2=O)Cc2cc3c(C)ccc(C)c3[nH]c2=O)cc1 .
active

State the result this test recorded for O=C(O)Cc1nn(Cc2ccc(Br)cc2F)c(=O)c2ccccc12 .
inactive

What did the test return for O=C(c1ccncc1)N1CCC2(CC1)CCN(C(c1ccccc1)c1ccccc1)CC2 ?
inactive

Check the results log: what was the call for COC(=O)[C@H](C)[C@H]1C[C@]1(C)[C@H](NC(=O)OCc1ccccc1)c1ccccc1 ?
active
